Entries annotated with measured protein stability index
B1: RAB11B (parent)
chain: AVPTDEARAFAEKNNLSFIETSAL

Variants of: B1
Protocol summary: protein stability index of a GFP-peptide fusion (GPS, HEK-293T) (PSI 1-6); higher = more stable;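 also: lentivirally expressed fusions sorted by FACS into six bins by GFP to DsRed ratio, PSI derived from sequencing read proportions per bin multiplied by bin number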
Experimental setup: c terminus: a fixed tail appended

{"columns": ["Mutation name", "protein stability index"],
 "data": [
  ["A11T", 2.71],
  ["P3D", 3.28],
  ["A11V", 2.3],
  ["A1S", 2.65],
  ["D5M", 2.07],
  ["V2G", 2.74],
  ["L24E", 4.74],
  ["E6T", 2],
  ["F10S", 3.28],
  ["A9M", 2.79],
  ["E20I", 1.85],
  ["L24V", 3.57],
  ["P3A", 2.93],
  ["A1Y", 2.69],
  ["F10V", 3.41],
  ["T4R", 1.77],
  ["E12A", 2.89],
  ["E12T", 2.61],
  ["A23V", 1.75],
  ["E20F", 1.62],
  ["R8N", 3.06],
  ["A1P", 3.02]
]}
